Tested on: IL-8
test: Glucocorticoid transrepression assay, IL-8 inhibition (TR)
Assay type: cell-based
setup_conditions: Homo sapiens; Table 1; NCl-H292 cells, TNFα 10 ng/ml; read-out: IL-8 inhibition (TR) Emax % inhibition
Procedure: Human Lung epithelial cell line NCl-H292 cells were dissociated from stock flask using 0.05% trypsin/0.53 mM EDTA. Cells were suspended in complete medium and counted. Cells were plated in 96-well flat-bottom plates at 20K cells /well in 0.2 ml/well. Plates were incubated for 24-48 hours until cells were between 75-90% confluent. […] The cell culture medium was sampled and IL-6 and IL-8 cytokine production was measured using the MSD Multi-Spot immunoassay.
measurement_label: Emax

Cc1ccccc1-n1ncc2c1C=C1CCC3C([C@@H](O)CC4(C)C3CC[C@]4(O)C(=O)CSc3nc4ccccc4n3C)C1(C)C2 (stereo partly drawn); < 60%
CC12Cc3cnn(C4CCOCC4)c3C=C1CCC1C2[C@@H](O)CC2(C)C1CC[C@]2(O)C(=O)CSc1nc2ncccc2o1 (stereo partly drawn); > 80%

Shift focus to the following entry.
Emax recorded for this compound, CC12Cc3cnn(CCC#N)c3C=C1CCC1C2[C@@H](O)CC2(C)C1CC[C@]2(O)C(=O)CSc1nc2cccnc2s1 (stereo partly drawn) , is < 60%

###

System: IL-8
test: Glucocorticoid transrepression assay, IL-8 inhibition (TR)
Assay type: cell-based
setup_conditions: Homo sapiens; Table 1; NCl-H292 cells, TNFα 10 ng/ml; read-out: IL-8 inhibition (TR) Emax % inhibition
measurement_label: Emax

Use the examples below as a reference point.
Cn1ncc2c1C=C1CCC3C([C@@H](O)CC4(C)C3CC[C@]4(O)C(=O)CSc3ccccn3)C1(C)C2 (some centres unmarked); < 60%
CC12Cc3cnn(CCC#N)c3C=C1CCC1C2[C@@H](O)CC2(C)C1CC[C@]2(O)C(=O)CSc1ccc2ccccc2n1 (some centres unmarked); < 60%
CC12Cc3cnn(C4CCOCC4)c3C=C1CCC1C2[C@@H](O)CC2(C)C1CC[C@]2(O)C(=O)CSc1ccc2ccccc2n1 (some centres unmarked); 70 to 80%
Cn1ncc2c1C=C1CCC3C([C@@H](O)CC4(C)C3CC[C@]4(O)C(=O)CSc3ccc4ccccc4n3)C1(C)C2 (some centres unmarked); 60 to 70%

Shift focus to the following entry.
Summary: CC12Cc3cnn(CCC#N)c3C=C1CCC1C2[C@@H](O)CC2(C)C1CC[C@]2(O)C(=O)CSc1nc2ccccc2o1 (some centres unmarked) , IL-8, Emax = 70 to 80%

###

Parameter Emax: see the listing below.
Tested on: IL-8
test: Glucocorticoid transrepression assay, IL-8 inhibition (TR)
Type: cell-based
setup_conditions: Homo sapiens; Table 5; NCl-H292 cells, TNFα 10 ng/ml; read-out: IL-8 inhibition (TR) Emax % inhibition

Use the examples below as a reference point.
C[C@]12Cc3cnn(-c4ccc(F)cc4)c3C=C1CCC1C2[C@@H](O)C[C@@]2(C)C1CC[C@]2(O)C(=O)CN1CCN(Cc2ccc(C(F)(F)F)cc2)CC1 (some centres unmarked); > 80%
C[C@]12Cc3cnn(-c4ccc(F)cc4)c3C=C1CCC1C2[C@@H](O)C[C@@]2(C)C1CC[C@]2(O)C(=O)CN1CCN(c2ccccn2)CC1 (some centres unmarked); > 80%

Emax recorded for this compound, C#CCN1CCN(CC(=O)[C@@]2(O)CCC3C4CCC5=Cc6c(cnn6-c6ccc(F)cc6)C[C@]5(C)C4[C@@H](O)C[C@@]32C)CC1 (some centres unmarked) , is < 60%

Emax recorded for this compound, C[C@]12Cc3cnn(-c4ccc(F)cc4)c3C=C1CCC1C2[C@@H](O)C[C@@]2(C)C1CC[C@]2(O)C(=O)CN1CCN(c2ncccn2)CC1 (some centres unmarked) , is > 80%

Emax recorded for this compound, C[C@]12Cc3cnn(-c4ccc(F)cc4)c3C=C1CCC1C2[C@@H](O)C[C@@]2(C)C1CC[C@]2(O)C(=O)CN1CCN(c2nc3ccccc3o2)CC1 (some centres unmarked) , is > 80%
